# credit: paper PMC10914731

# Test system: Mycobacterium avium
# assayName: microbe, parasite or virus in culture
# Assay type: cell-based
# assayContext: Experiment 2; three replicate columns; read-out: MIC (µM) Mycobacterium avium
measurementName: MIC
A complete answer gives the number and then names the unit.

[
  {
    "compound": "COc1c(N2C[C@@H]3CCCN[C@@H]3C2)c(F)cc2c(=O)c(C(=O)O)cn(C3CC3)c12 [Moxifloxacin, reference compound]",
    "measurementName": "MIC",
    "measValue": "2.49 µM"
  }
]

Now consider the entry below.
Please look up its MIC: CC[C@H]1OC(=O)[C@H](C)[C@@H](O[C@H]2C[C@@](C)(OC)[C@@H](O)[C@H](C)O2)[C@H](C)[C@@H](O[C@@H]2O[C@H](C)C[C@H](N(C)C)[C@H]2O)[C@](C)(OC)C[C@@H](C)C(=O)[C@H](C)[C@@H](O)[C@]1(C)O [Clarithromycin, reference compound]
0.33 µM
